Ki values for the molecules below.
# system: Human immunodeficiency virus type 1 protease (Human immunodeficiency virus 1)
# assay summary: Binding affinity for HIV-1 protease was determined

>  <substance smiles>
O=C(N[C@@H](Cc1ccccc1)[C@H](O)CN(Cc1ccccc1)S(=O)(=O)c1ccccc1)OCc1ccccc1

>  <Ki [nM]>
125

$$$$
>  <substance smiles>
CC(C)CCN(C[C@@H](O)[C@H](Cc1ccccc1)NC(=O)OCc1ccccc1)S(C)(=O)=O

>  <Ki [nM]>
1870

$$$$
>  <substance smiles>
O=C(N[C@@H](Cc1ccccc1)[C@H](O)CN(CC1CCCCC1)S(=O)(=O)c1ccccc1)OCc1ccccc1

>  <Ki [nM]>
6.7

$$$$
>  <substance smiles>
CC(C)CCN(C[C@@H](O)[C@H](Cc1ccccc1)NC(=O)[C@H](CC(N)=O)NC(=O)OCc1ccccn1)S(=O)(=O)c1ccccc1

>  <Ki [nM]>
0.5

$$$$
>  <substance smiles>
CC(C)CCN(C[C@@H](O)[C@H](Cc1ccccc1)NC(=O)[C@H](CC(N)=O)NC(=O)OCc1ccccc1)S(C)(=O)=O

>  <Ki [nM]>
57

$$$$
